Taken from the supplement of paper PMC6555819.

The following sequences are shown together with reported PBM binding z-score values.
System: PPARg:RXRa 30nM:10nM, anti-RXR (NR concentration 30 nM, RXRa partner concentration 10 nM)
Test: PBM binding z-score (relative to random genomic background probes); higher = stronger binding; sequences stand for … in GC…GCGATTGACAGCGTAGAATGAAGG
// return a plain number; no unit text

# example entries with known answers
>>> value_observed("AGAATGAGGTTATACGTAGATCGGGGAAGAAAGT")
0.629
>>> value_observed("GCTTACGGGTCAAAGGTTATAGGATGAATAGAAT")
10
>>> value_observed("TCTAGCAGGCCAGAAGGTCACTCAAGAGGTACGG")
2.27

Entry AGCTCTAGGTAAGACTCAGTTCAGTGAAGAACGC has what PBM binding z-score? 0.0391

Entry ATCTCTAGGTAAAATTCAGTGAAAGATCGATAGA has what PBM binding z-score? 0.552

Entry CAAACTAAGTCAAAGGTCAAAGTCGAGCCAACCA has what PBM binding z-score? 11.8

Entry CCTAGCAGGCCAATCTCGGTCACTCAAGGCTTGA has what PBM binding z-score? -1.26

Entry CCTGCTAGGTCAATGGTCAACTAAAGCAGCTCGC has what PBM binding z-score? 4.25

Entry CCGACTGGGGCAAAGGTTACCATACTCAGTACGA has what PBM binding z-score? 8.71

Entry AGTCGAAGTTCACTAGGTAACGTAAGATTCAGCT has what PBM binding z-score? 0.891

Entry GATACAGGGTCAGCTAGAGGCCAGAGAATGGAAA has what PBM binding z-score? 1.08

Entry CCTTACGGGTCACTCCAGGTTTTAGCATCGGAGT has what PBM binding z-score? 0.53

Entry ATCTCTAGGTAATCAAGTTCAGTGAATGCCGAAC has what PBM binding z-score? 0.611

Entry CAAACTGGGTCACGAAAGGTCAAAGTCGAATGAC has what PBM binding z-score? 6.44
